Values were extracted from patent US20240190986A1.

biological target: T1, MSLN·His protein (human, UniProt Q13421 296-580, limits assumed); assay: SPR (Biacore), antibody captured on protein A, MSLN·His as analyte
T1 construct: Bought protein; also called human MSLN·His antigen; not shown: His tag
T1 sequence (Q13421 other isoform, or with tags, fused parts or gaps limits assumed): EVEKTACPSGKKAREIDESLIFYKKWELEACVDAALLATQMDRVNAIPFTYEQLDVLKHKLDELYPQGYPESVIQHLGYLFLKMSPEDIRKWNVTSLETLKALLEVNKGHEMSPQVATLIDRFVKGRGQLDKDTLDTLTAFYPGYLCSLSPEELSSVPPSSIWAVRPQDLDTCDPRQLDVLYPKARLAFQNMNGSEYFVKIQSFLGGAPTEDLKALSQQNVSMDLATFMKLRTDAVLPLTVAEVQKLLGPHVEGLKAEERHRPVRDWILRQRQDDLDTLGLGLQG
test-readout: koff

Solved entries:
>  <binder>
M2339-z11-14 (antibody, IgG4, V domains shown, Humanized variant of M2339) VH: QLQLGASGGGLVQPGGSLRLSCALSGFTLRELDEFAIGWFRQAPGKEREGVSCISGTGGITHYADSVKGRFTISRDIAKNTVYLQMNSLNSEDTAVYYCAADERCTDRLIRPPTYWGQGTQVTVSS

>  <observed-measurement>
1.01e-05 s⁻¹

$$$$
>  <binder>
M2339-z11-17 (antibody, IgG4, V domains shown, Humanized variant of M2339) VH: ELQLGASGGGLVQPGGSLRLSCALSGFTLRELDEFAIGWFRQAPGKEREGVSCISGTGGITHYADSVKGRFTISRDNSKNTLYLQMNSLRAEDTAVYYCAADERCTDRLIRPPTYWGQGTQVTVSS

>  <observed-measurement>
0.000156 s⁻¹

$$$$
>  <binder>
M2339-z11-10 (antibody, IgG4, V domains shown, Humanized variant of M2339) VH: QLQLVESGGGLVQPGGSLRLSCALSGFTLRELDEFAIGWFRQAPGKEREGVSCISGTGGITHYADSVKGRFTISRDIAKTTVYLQMNSLNSEDTAVYYCAADERCTDRLIRPPTYWGQGTQVTVSS

>  <observed-measurement>
9.81e-06 s⁻¹

$$$$

Which koff value belongs to M2339-z11-4 (antibody, IgG4, V domains shown, Humanized variant of M2339) VH: EVQLGASGGGLVQPGGSLRLSCALSGFTLRELDEFAIGWFRQAPGKEREGVSCISGTGGITHYADSVKGRFTISRDNSKTTVYLQMNSLRAEDTAVYYCAADERCTDRLIRPPTYWGQGTQVTVSS ? 0.00119 s⁻¹

Now the binder M2339-z11-12 (antibody, IgG4, V domains shown, Humanized variant of M2339) VH: EVQLGASGGGLVQPGGSLRLSCALSGFTLRELDEFAIGWFRQAPGKEREGVSCISGTGGITHYADSVKGRFTISRDIAKTTVYLQMNSLNSEDTAVYYCAADERCTDRLIRPPTYWGQGTQVTVSS 0.00102 s⁻¹

Now the binder M2339-z11-6 (antibody, IgG4, V domains shown, Humanized variant of M2339) VH: EVQLVASGGGLVQPGGSLRLSCALSGFTLRELDEFAIGWFRQAPGKEREGVSCISGTGGITHYADSVKGRFTISRDNSKTTVYLQMNSLRSEDTAVYYCAADERCTDRLIRPPTYWGQGTQVTVSS 0.00824 s⁻¹

Now the binder M2339-z11-7 (antibody, IgG4, V domains shown, Humanized variant of M2339) VH: ELQLGASGGGLVQPGGSLRLSCALSGFTLRELDEFAIGWFRQAPGKEREGVSCISGTGGITHYADSVKGRFTISRDNSKTTVYLQMNSLRAEDTAVYYCAADERCTDRLIRPPTYWGQGTQVTVSS 5.18e-05 s⁻¹

Now the binder M2339-z11-9 (antibody, IgG4, V domains shown, Humanized variant of M2339) VH: QLQLVASGGGLVQPGGSLRLSCALSGFTLRELDEFAIGWFRQAPGKEREGVSCISGTGGITHYADSVKGRFTISRDIAKTTVYLQMNSLNSEDTAVYYCAADERCTDRLIRPPTYWGQGTQVTVSS 1.2e-05 s⁻¹

Now the binder M2339-z11-13 (antibody, IgG4, V domains shown, Humanized variant of M2339) VH: QLQLGASGGGLVQPGGSLRLSCALSGFTLRELDEFAIGWFRQAPGKEREGVSCISGTGGITHYADSVKGRFTISRDNSKTTVYLQMNSLNSEDTAVYYCAADERCTDRLIRPPTYWGQGTQVTVSS 9.29e-06 s⁻¹
